- ASSAY_NAME: clinical
- PROTOCOL_CONDITIONS: human, plasma, intravenous, 100 mg/m2, Vss, Cohorts 1 & 2, 17-AAG 100 mg/m^2; Mean
PROPERTY_NAME: Vd
Please give the number followed by its unit.

input: So what's the measured Vd for this one? C=CCNC1=C2C[C@@H](C)C[C@H](OC)[C@H](O)[C@@H](C)/C=C(\C)[C@H](OC(N)=O)[C@@H](OC)/C=C\C=C(/C)C(=O)NC(=CC1=O)C2=O [17-AAG, 17-Allylamino-17-demethoxygeldanamycin]
output: 174 L

====

- ASSAY_NAME: clinical
- PROTOCOL_CONDITIONS: human, plasma, intravenous, distributive volume VSS, cohorts 1-4 combined
PROPERTY_NAME: Vd (L)
Give the value, in units of L, as a plain number.

input: So what's the measured Vd for this one? C=CCNC1=C2C[C@@H](C)C[C@H](OC)[C@H](O)[C@@H](C)/C=C(\C)[C@H](OC(N)=O)[C@@H](OC)/C=C\C=C(/C)C(=O)NC(=CC1=O)C2=O
output: 153

====

- ASSAY_NAME: clinical
- PROTOCOL_CONDITIONS: human, plasma, intravenous, 150 mg/m2, AUClast, Cohorts 3 & 4, 17-AAG 150 mg/m^2; Mean
PROPERTY_NAME: AUC(0-t)

input: So what's the measured AUC(0-t) for this one? C=CCNC1=C2C[C@@H](C)C[C@H](OC)[C@H](O)[C@@H](C)/C=C(\C)[C@H](OC(N)=O)[C@@H](OC)/C=C\C=C(/C)C(=O)NC(=CC1=O)C2=O
output: 5770 ng·h/mL

====

- ASSAY_NAME: clinical
- PROTOCOL_CONDITIONS: human, plasma, intravenous, 100 mg/m2, Clearance, Cohorts 1 & 2, 17-AAG 100 mg/m^2; Mean
- Protocol: PK assessments included the following tests. […] The total number of PK samples collected was approximately 115 mL of whole blood (7-8 tablespoons). If a patient experienced a potentially drug-related SAE, additional PK samples were collected. Blood was drawn from the contralateral arm to the infusion site using an indwelling catheter to avoid multiple needle sticks. […] The blood tube was inverted several times and the tube placed in wet ice immediately pending separation of the plasma. […]
PROPERTY_NAME: Clearance

input: So what's the measured Clearance for this one? C=CCNC1=C2C[C@@H](C)C[C@H](OC)[C@H](O)[C@@H](C)/C=C(\C)[C@H](OC(N)=O)[C@@H](OC)/C=C\C=C(/C)C(=O)NC(=CC1=O)C2=O
output: 879 mL/min

====

- ASSAY_NAME: clinical
- PROTOCOL_CONDITIONS: human, plasma, intravenous, 150 mg/m2, Cmax, Cohorts 3 & 4, 17-AAG 150 mg/m^2; Median
- Method: PK assessments included the following tests. […] The total number of PK samples collected was approximately 115 mL of whole blood (7-8 tablespoons). If a patient experienced a potentially drug-related SAE, additional PK samples were collected. Blood was drawn from the contralateral arm to the infusion site using an indwelling catheter to avoid multiple needle sticks. […] The blood tube was inverted several times and the tube placed in wet ice immediately pending separation of the plasma. […]
PROPERTY_NAME: Cmax

input: So what's the measured Cmax for this one? C=CCNC1=C2C[C@@H](C)C[C@H](OC)[C@H](O)[C@@H](C)/C=C(\C)[C@H](OC(N)=O)[C@@H](OC)/C=C\C=C(/C)C(=O)NC(=CC1=O)C2=O
output: 2740 ng/mL

====

- ASSAY_NAME: clinical
- PROTOCOL_CONDITIONS: human, plasma, intravenous, 150 mg/m2, Cmax, Cohorts 3 & 4, 17-AAG 150 mg/m^2; Mean
PROPERTY_NAME: Cmax (ng/mL)
Give the value, in units of ng/mL, as a plain number.

input: So what's the measured Cmax for this one? C=CCNC1=C2C[C@@H](C)C[C@H](OC)[C@H](O)[C@@H](C)/C=C(\C)[C@H](OC(N)=O)[C@@H](OC)/C=C\C=C(/C)C(=O)NC(=CC1=O)C2=O
output: 3470

====

- ASSAY_NAME: clinical
- PROTOCOL_CONDITIONS: human, plasma, intravenous, 150 mg/m2, AUCextra, Cohorts 3 & 4, 17-AAG 150 mg/m^2; Median
- Protocol: PK assessments included the following tests. […] The total number of PK samples collected was approximately 115 mL of whole blood (7-8 tablespoons). If a patient experienced a potentially drug-related SAE, additional PK samples were collected. Blood was drawn from the contralateral arm to the infusion site using an indwelling catheter to avoid multiple needle sticks. […] The blood tube was inverted several times and the tube placed in wet ice immediately pending separation of the plasma. […]
PROPERTY_NAME: AUC (ng·h/mL)
Give the value, in units of ng·h/mL, as a plain number.

input: So what's the measured AUC for this one? C=CCNC1=C2C[C@@H](C)C[C@H](OC)[C@H](O)[C@@H](C)/C=C(\C)[C@H](OC(N)=O)[C@@H](OC)/C=C\C=C(/C)C(=O)NC(=CC1=O)C2=O [17-AAG, 17-Allylamino-17-demethoxygeldanamycin]
output: 199

====

- ASSAY_NAME: clinical
- PROTOCOL_CONDITIONS: human, plasma, intravenous, 100 mg/m2, Tmax, Cohorts 1 & 2, 17-AAG 100 mg/m^2; Mean
PROPERTY_NAME: Tmax (h)
Give the value, in units of h, as a plain number.

input: So what's the measured Tmax for this one? C=CCNC1=C2C[C@@H](C)C[C@H](OC)[C@H](O)[C@@H](C)/C=C(\C)[C@H](OC(N)=O)[C@@H](OC)/C=C\C=C(/C)C(=O)NC(=CC1=O)C2=O [17-AAG, 17-Allylamino-17-demethoxygeldanamycin]
output: 1

====

- ASSAY_NAME: clinical
- PROTOCOL_CONDITIONS: human, plasma, intravenous, 100 mg/m2, MRT, Cohorts 1 & 2, 17-AAG 100 mg/m^2; Mean
PROPERTY_NAME: MRT (h)
Give the value, in units of h, as a plain number.

input: So what's the measured MRT for this one? C=CCNC1=C2C[C@@H](C)C[C@H](OC)[C@H](O)[C@@H](C)/C=C(\C)[C@H](OC(N)=O)[C@@H](OC)/C=C\C=C(/C)C(=O)NC(=CC1=O)C2=O
output: 3.32

====

- ASSAY_NAME: clinical
- PROTOCOL_CONDITIONS: human, plasma, intravenous, 150 mg/m2, AUCextra, Cohorts 3 & 4, 17-AAG 150 mg/m^2; Mean
PROPERTY_NAME: AUC (ng·h/mL)
Give the value, in units of ng·h/mL, as a plain number.

input: So what's the measured AUC for this one? C=CCNC1=C2C[C@@H](C)C[C@H](OC)[C@H](O)[C@@H](C)/C=C(\C)[C@H](OC(N)=O)[C@@H](OC)/C=C\C=C(/C)C(=O)NC(=CC1=O)C2=O
output: 256

====

- ASSAY_NAME: clinical
- PROTOCOL_CONDITIONS: human, plasma, intravenous, 150 mg/m2, Vss, Cohorts 3 & 4, 17-AAG 150 mg/m^2; Median
PROPERTY_NAME: Vd (L)
Give the value, in units of L, as a plain number.

input: So what's the measured Vd for this one? C=CCNC1=C2C[C@@H](C)C[C@H](OC)[C@H](O)[C@@H](C)/C=C(\C)[C@H](OC(N)=O)[C@@H](OC)/C=C\C=C(/C)C(=O)NC(=CC1=O)C2=O
output: 151

====

- ASSAY_NAME: clinical
- PROTOCOL_CONDITIONS: human, in vivo, 150 mg/m2, Vz, Cohorts 3 & 4, 17-AAG 150 mg/m^2; Median
PROPERTY_NAME: Vd
Please give the number followed by its unit.

input: So what's the measured Vd for this one? C=CCNC1=C2C[C@@H](C)C[C@H](OC)[C@H](O)[C@@H](C)/C=C(\C)[C@H](OC(N)=O)[C@@H](OC)/C=C\C=C(/C)C(=O)NC(=CC1=O)C2=O [17-AAG, 17-Allylamino-17-demethoxygeldanamycin]
output: 172 L

====

- ASSAY_NAME: clinical
- PROTOCOL_CONDITIONS: human, plasma, intravenous, 100 mg/m2, AUClast, Cohorts 1 & 2, 17-AAG 100 mg/m^2; Mean
PROPERTY_NAME: AUC(0-t) (ng·h/mL)
Give the value, in units of ng·h/mL, as a plain number.

input: So what's the measured AUC(0-t) for this one? C=CCNC1=C2C[C@@H](C)C[C@H](OC)[C@H](O)[C@@H](C)/C=C(\C)[C@H](OC(N)=O)[C@@H](OC)/C=C\C=C(/C)C(=O)NC(=CC1=O)C2=O [17-AAG, 17-Allylamino-17-demethoxygeldanamycin]
output: 3580

The measurements presented in this section are drawn from patent US20060252740A1.
